assay-system: Histone deacetylase
assay-comment: Inhibition of HDAC in human HeLa cell nuclear extracts using Ac-Arg-Gly-Lys(Ac)-AMC substrate by fluorimetry
Assay type: protein assay
parameter: IC50 (nM)
Report only the number, with the unit nM understood.

Prompt: Could you tell me which IC50 is on file for CCC(C)C(c1nc2ccccc2o1)n1cc(/C=C/C(=O)NO)nn1 (racemic) ?
Completion: 4

Prompt: Could you tell me which IC50 is on file for O=C(/C=C/c1cn(Cc2nc3ccccc3o2)nn1)NO ?
Completion: 105

Prompt: Could you tell me which IC50 is on file for NC(=O)CCC(c1nc2ccccc2o1)n1cc(/C=C/C(=O)NO)nn1 (racemic) ?
Completion: 49

Prompt: Could you tell me which IC50 is on file for O=C(O)CCC(c1nc2ccccc2o1)n1cc(/C=C/C(=O)NO)nn1 (racemic) ?
Completion: 333

Prompt: Could you tell me which IC50 is on file for CC(C)CC(c1nc2ccccc2o1)n1cc(/C=C/C(=O)NO)nn1 (racemic) ?
Completion: 19

Prompt: Could you tell me which IC50 is on file for O=C(/C=C/c1cn(C(Cc2ccccc2)c2nc3ccccc3o2)nn1)NO (racemic) ?
Completion: 219

Prompt: Could you tell me which IC50 is on file for CC(C)C(c1nc2ccccc2o1)n1cc(/C=C/C(=O)NO)nn1 (racemic) ?
Completion: 23

Prompt: Could you tell me which IC50 is on file for O=C(/C=C/c1cn(Cc2nc3ccccc3[nH]2)nn1)NO ?
Completion: 178

Prompt: Could you tell me which IC50 is on file for CC(C)[C@H](c1nc2ccccc2o1)n1cc(/C=C/C(=O)NO)nn1 ?
Completion: 31

Prompt: Could you tell me which IC50 is on file for CC(C)[C@@H](c1nc2ccccc2o1)n1cc(/C=C/C(=O)NO)nn1 ?
Completion: 7

---

assay-comment: Solubility in pH 7.4 PBS buffer
Assay type: physicochemical
parameter: solubility

Prompt: Could you tell me which solubility is on file for CC(C)[C@@H](c1nc2ccccc2o1)n1cc(/C=C/C(=O)NO)nn1 ?
Completion: 20 µg/mL

---

assay-comment: Half life in artificial intestinal fluid
Format: physicochemical
parameter: half-life

Prompt: Could you tell me which half-life is on file for CC(C)[C@@H](c1nc2ccccc2o1)n1cc(/C=C/C(=O)NO)nn1 ?
Completion: > 24 h

---

assay-system: Histone deacetylase
assay-comment: Inhibition of HDAC in human HeLa cell nuclear extracts using Ac-Arg-Gly-Lys(Ac)-AMC substrate by fluorimetry
Assay type: protein assay
parameter: IC50 (nM)
Report only the number, with the unit nM understood.

Prompt: Fill in the recorded IC50 for this compound, with Histone deacetylase as test system: O=C(O)CC(c1nc2ccccc2o1)n1cc(/C=C/C(=O)NO)nn1 (racemic)
Completion: 140

Prompt: Fill in the recorded IC50 for this compound, with Histone deacetylase as test system: CC(c1nc2ccccc2o1)n1cc(/C=C/C(=O)NO)nn1 (racemic)
Completion: 86

Prompt: Fill in the recorded IC50 for this compound, with Histone deacetylase as test system: O=C(/C=C/c1cn(Cc2nc3ccccc3s2)nn1)NO
Completion: 41

Prompt: Fill in the recorded IC50 for this compound, with Histone deacetylase as test system: O=C(/C=C/c1cn(C/C=C/c2ccccc2)nn1)NO
Completion: 104

---

Please respond with reported half-life for every item in the list.
assay-comment: Half life in mouse liver microsomes
Format: ADME, Microsome
Report only the number, with the unit h understood.

Prompt: Could you tell me which half-life is on file for CC(C)[C@@H](c1nc2ccccc2o1)n1cc(/C=C/C(=O)NO)nn1 ?
Completion: 3.25

Prompt: Could you tell me which half-life is on file for O=C(CCCCCCC(=O)Nc1ccccc1)NO [VORINOSTAT] ?
Completion: 1.37

---

assay-comment: Half life in artificial gastric fluid
Type: physicochemical
parameter: half-life (h)
Report only the number, with the unit h understood.

Prompt: Could you tell me which half-life is on file for CC(C)[C@@H](c1nc2ccccc2o1)n1cc(/C=C/C(=O)NO)nn1 ?
Completion: 9.4

Taken from ChEMBL document CHEMBL2034936.
